experimentalSystem: T1, human SEMA4A expressed on cells (UniProt ID Q9H3S1, isoform 1) (human, UniProt Q9H3S1 33-761)
T1 construct: Cell-surface SEMA4A: endogenous on MM.1S, NCI-H929 and Karpas-25 cells, or expi293 cells transfected with Origene SC323738; also called human Semaphorin4A; SEMA4A endogenously expressed on MM.1S cells
T1 sequence: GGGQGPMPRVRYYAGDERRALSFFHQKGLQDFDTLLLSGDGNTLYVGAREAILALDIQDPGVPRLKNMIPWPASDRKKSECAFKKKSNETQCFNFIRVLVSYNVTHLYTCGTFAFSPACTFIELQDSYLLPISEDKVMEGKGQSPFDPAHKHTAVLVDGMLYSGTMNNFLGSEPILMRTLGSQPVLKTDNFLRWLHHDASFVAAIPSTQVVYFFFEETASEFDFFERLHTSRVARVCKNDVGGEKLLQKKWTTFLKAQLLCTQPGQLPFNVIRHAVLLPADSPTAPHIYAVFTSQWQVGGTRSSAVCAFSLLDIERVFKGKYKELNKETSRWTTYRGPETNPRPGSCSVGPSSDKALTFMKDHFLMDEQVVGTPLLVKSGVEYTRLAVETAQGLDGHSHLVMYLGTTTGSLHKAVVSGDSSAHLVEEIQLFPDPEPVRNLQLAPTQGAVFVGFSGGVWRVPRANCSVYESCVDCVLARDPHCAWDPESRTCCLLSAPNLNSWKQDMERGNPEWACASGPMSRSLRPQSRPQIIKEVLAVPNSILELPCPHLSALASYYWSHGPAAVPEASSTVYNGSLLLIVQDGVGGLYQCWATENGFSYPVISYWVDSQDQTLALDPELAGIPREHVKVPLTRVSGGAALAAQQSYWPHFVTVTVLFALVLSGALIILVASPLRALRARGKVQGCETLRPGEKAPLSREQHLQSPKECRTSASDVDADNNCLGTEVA
method: Mirrorball epitope competition on MM.1S cells; competitor: fixed 5E3 mouse IgG1
Source text: The 5E3 epitope competition assay assessed the ability of the un-purified IgGs expressed in a human IgG1 backbone to compete for binding to the mouse 5E3 epitope on human SEMA4A endogenously expressed by MM.1S cells, a human multiple myeloma cell line. The assay utilised a secondary-Alexa Fluor 647 conjugate, 5E3 expressed in a mouse IgG1 (A) backbone (BioLegend®, San Diego, CA, 148402) and a Mirrorball fluorescence cytometer (SPT Labtech, UK). […]
pIC50: −log10 of the molar value.
Rule: y for pIC50 not less than 8, n for anything less.

Please review the entries below; each comes with its answer.
1) 5Hg4-5Lg4 human Alya IgG1 (antibody, V domains shown, Humanised 5E3; human IgG1 Alya constant (239iCys, S442C, EU), lambda light chain; purified, unconjugated) VH: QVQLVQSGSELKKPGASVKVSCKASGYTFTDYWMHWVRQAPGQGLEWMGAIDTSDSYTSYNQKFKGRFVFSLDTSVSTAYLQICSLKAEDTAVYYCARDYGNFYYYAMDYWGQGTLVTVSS VL: QSALTQPPSVSGSPGQSVTISCRSSTGAVTTSNYANWYQQPPGTAPKLMIYGTNNRAPGVPDRFSGSKSGNTASLTISGLQAEDEADYYCALWYSNHWVFGGGTKLTVL = n
2) mouse 5E3 expressed as human IgG1 Alya (antibody, V domains shown, Mouse variable domains on human IgG1 Alya constant (pEU1.22; 239iCys and S442C, EU numbering); purified, unconjugated; also called 5E3 IgG1 Alya) VH: QVQLQQPGAELVMPGASVKMSCKASGYTFTDYWMHWVKQRPGQGLEWIGAIDTSDSYTSYNQKFKGKATLTVDESSSTAYMQLSSLTSEDSAVYYCARDYGNFYYYAMDYWGQGTSVTVSS VL: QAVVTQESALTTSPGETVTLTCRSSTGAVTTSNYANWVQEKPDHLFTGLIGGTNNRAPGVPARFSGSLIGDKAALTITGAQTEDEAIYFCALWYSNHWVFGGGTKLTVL = y
3) 5Hg2-5Lg1 human Alya IgG1 (antibody, V domains shown, Humanised 5E3; human IgG1 Alya constant (239iCys, S442C, EU), lambda light chain; purified, unconjugated) VH: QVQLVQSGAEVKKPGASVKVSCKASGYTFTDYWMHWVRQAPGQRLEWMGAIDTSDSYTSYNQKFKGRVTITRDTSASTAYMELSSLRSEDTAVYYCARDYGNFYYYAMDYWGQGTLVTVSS VL: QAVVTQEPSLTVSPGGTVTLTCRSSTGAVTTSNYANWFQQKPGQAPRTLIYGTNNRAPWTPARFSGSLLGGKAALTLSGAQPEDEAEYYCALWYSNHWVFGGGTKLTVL = y
4) 5Hg2-5Lg2 human Alya IgG1 (antibody, V domains shown, Humanised 5E3; human IgG1 Alya constant (239iCys, S442C, EU), lambda light chain; purified, unconjugated) VH: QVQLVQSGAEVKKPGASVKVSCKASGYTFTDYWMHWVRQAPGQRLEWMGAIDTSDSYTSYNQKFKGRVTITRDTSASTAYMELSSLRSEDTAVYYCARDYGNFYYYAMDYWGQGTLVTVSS VL: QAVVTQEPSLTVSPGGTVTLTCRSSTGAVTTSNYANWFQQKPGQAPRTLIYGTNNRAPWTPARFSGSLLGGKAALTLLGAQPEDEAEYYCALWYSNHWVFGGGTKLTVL = y
5) 5Hg1-5Lg2 human Alya IgG1 (antibody, V domains shown, Humanised 5E3; human IgG1 Alya constant (239iCys, S442C, EU), lambda light chain; purified, unconjugated) VH: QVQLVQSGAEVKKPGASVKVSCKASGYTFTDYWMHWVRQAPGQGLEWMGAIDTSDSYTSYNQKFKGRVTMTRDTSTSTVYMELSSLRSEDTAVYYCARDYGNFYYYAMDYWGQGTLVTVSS VL: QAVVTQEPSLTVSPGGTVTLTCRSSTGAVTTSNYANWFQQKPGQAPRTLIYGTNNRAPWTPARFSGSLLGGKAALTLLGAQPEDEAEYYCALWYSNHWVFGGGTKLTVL = y
6) 5Hg4-5Lg5 human Alya IgG1 (antibody, V domains shown, Humanised 5E3; human IgG1 Alya constant (239iCys, S442C, EU), lambda light chain; purified, unconjugated) VH: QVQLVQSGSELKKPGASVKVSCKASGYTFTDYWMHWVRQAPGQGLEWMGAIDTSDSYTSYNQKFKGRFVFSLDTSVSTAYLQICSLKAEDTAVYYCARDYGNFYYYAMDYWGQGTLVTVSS VL: QSVVTQPPSVSGAPGQRVTISCRSSTGAVTTSNYANWYQQLPGTAPKLLIYGTNNRAPGVPDRFSGSKSGASASLAITGLQAEDEADYYCALWYSNHWVFGGGTKLTVL = n

Request: Reported pIC50 reaches at least 8 for 5Hg2-5Lg6 human Alya IgG1 (antibody, V domains shown, Humanised 5E3; human IgG1 Alya constant (239iCys, S442C, EU), lambda light chain; purified, unconjugated) VH: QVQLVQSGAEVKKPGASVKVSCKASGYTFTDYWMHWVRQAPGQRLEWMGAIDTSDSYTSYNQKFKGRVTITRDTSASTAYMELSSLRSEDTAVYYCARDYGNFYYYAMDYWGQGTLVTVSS VL: SYELTQPSSVSVSPGQTARITCRSSTGAVTTSNYANWFQQKPGQAPVLVIYGTNNRAPGIPERFSGSSSGTTVTLTISGAQVEDEADYYCALWYSNHWVFGGGTKLTVL ?
Result: n

// provenance: patent US20250152729A1
